Collected literature values of IC50 measured for Receptor tyrosine-protein kinase erbB-2 (Homo sapiens).

smiles notation | test target | readout type | observed result
O=C(O)c1cccc(C(=O)CC[C@@H]2O[C@@H](n3cnc4c(=O)[nH]cnc43)[C@@H](O)[C@H]2O)c1 | Receptor tyrosine-protein kinase erbB-2 (Homo sapiens) | IC50 | > 10 µM
O=C1CCCc2cc(-c3ccnc(Nc4ccccc4)n3)ccc2N1 | Receptor tyrosine-protein kinase erbB-2 (Homo sapiens) | IC50 | > 100 µM

[ask] Query for Receptor tyrosine-protein kinase erbB-2 (Homo sapiens): what IC50 does the record show for `COc1cc(F)cc(-c2ccc3c(NC(=O)c4ccc(N5CCC(N(C)C)CC5)cc4)n[nH]c3c2)c1` ?
[reply] > 1 µM
